Test system: cotton melon aphid (Aphis gossypii)
Assay: Test F: control of cotton melon aphid on cotton plant, contact and/or systemic
Assay type: in vivo
Conditions: 144 h, sprayed at 250 ppm, visually rated after 6 days

given_smiles	test_target	mortality at 250 ppm
O=C1NCN(C(=O)c2cc(C(F)(F)F)nn2-c2ncccc2Cl)c2c(Cl)cc(Cl)cc21	cotton melon aphid (Aphis gossypii)	≥ 80%
CC(C)N1CN(C(=O)c2cc(Cl)nn2-c2ncccc2Cl)c2c(Cl)cc(Cl)cc2C1=O	cotton melon aphid (Aphis gossypii)	≥ 80%
CN1CN(C(=O)c2cc(C(F)(F)F)nn2-c2ncccc2Cl)c2c(Cl)cc(Cl)cc2C1=O	cotton melon aphid (Aphis gossypii)	≥ 80%
Cc1cc(Cl)cc2c1N(C(=O)c1cc(C(F)(F)F)nn1-c1ncccc1Cl)CN(C(C)C)C2=O	cotton melon aphid (Aphis gossypii)	≥ 80%
CC(C)N1CN(C(=O)c2cc(Br)nn2-c2ncccc2Cl)c2c(Cl)cc(Cl)cc2C1=O	cotton melon aphid (Aphis gossypii)	≥ 80%
CN1CN(C(=O)c2cc(Cl)nn2-c2ncccc2Cl)c2c(Cl)cc(Cl)cc2C1=O	cotton melon aphid (Aphis gossypii)	≥ 80%
Cc1cc(Cl)cc2c1N(C(=O)c1cc(Br)nn1-c1ncccc1Cl)CN(C(C)C)C2=O	cotton melon aphid (Aphis gossypii)	≥ 80%
CN1CN(C(=O)c2cc(Br)nn2-c2ncccc2Cl)c2c(Cl)cc(Cl)cc2C1=O	cotton melon aphid (Aphis gossypii)	≥ 80%
Cc1cc(Cl)cc2c1N(C(=O)c1cc(C(F)(F)F)nn1-c1ncccc1Cl)CN(C)C2=O	cotton melon aphid (Aphis gossypii)	≥ 80%
